assay text: Metabolic stability in human hepatic microsome
Type: in vitro ADME
test settings: microsomes, pH 7.4; human hepatic microsome, NADPH(+); read-out: CL NADPH(+)
Positions of bridges follow the written chain, without caps; N, C: chain ends. Non-standard residues stand in square brackets, D forms with d. Residues, ends and D or L forms follow the SMILES beside them. *: point of attachment. NMeF = CN[C@@H](Cc1ccccc1)C(=O)O; NMeL = CN[C@@H](CC(C)C)C(=O)O; NMeA = CN[C@@H](C)C(=O)O; Piperidide = C1CCN(*)CC1; Sar = CNCC(=O)O
parameter measured: microsomal CLint at 1 uM (µL/min/mg)

- CC(C)C[C@@H]1NC(=O)[C@H](CC(C)C)N(C)C(=O)CN(C)C(=O)[C@H]([C@@H](C)O)NC(=O)[C@H](C)N(C)C(=O)C[C@@H](C(=O)N2CCCCC2)NC(=O)[C@H](Cc2ccccc2)N(C)C1=O [DP-744] ([NMeA]T[Sar][NMeL]L[NMeF]D-Piperidide; lactam N-7): 61
- CC[C@H](C)[C@@H]1NC(=O)[C@H](Cc2ccccc2)N(C)C(=O)[C@@H](C)NC(=O)C[C@@H](C(=O)N2CCCCC2)NC(=O)[C@H](C(C)C)NC(=O)CN(C)C(=O)[C@H]([C@@H](C)O)NC1=O [DP-674] ([dA][NMeF]IT[Sar]VD-Piperidide; lactam N-7): 10

* * *

assay text: Metabolic stability in human hepatic microsome
Type: in vitro ADME
test settings: human, microsomes, pH 7.4, CL NADPH(+)
Starred links: 1 amine or outer side, 2 acyl side, 3 side chain; linkers in the order of their positions; H or OH if unused. Positions of bridges follow the written chain, without caps; N, C: chain ends. Non-standard residues stand in square brackets, D forms with d. Residues, ends and D or L forms follow the SMILES beside them. ξ: configuration not given here. *: point of attachment. NMeF = CN[C@@H](Cc1ccccc1)C(=O)O; NMeI = CC[C@H](C)[C@H](NC)C(=O)O; NMeβAla = CN(CCC(=O)[*:2])[*:1]; NMeL = CN[C@@H](CC(C)C)C(=O)O; ξNMeF = CNC(Cc1ccccc1)C(=O)O; NMeA = CN[C@@H](C)C(=O)O; Piperidide = C1CCN(*)CC1; tBu = CC(C)(C)*
parameter measured: microsomal CLint at 1 uM (µL/min/mg)

* CC[C@H](C)[C@H]1C(=O)N[C@@H]([C@@H](C)O)C(=O)N(C)[C@@H](C)C(=O)N(C)[C@@H](CC(C)C)C(=O)N[C@H](C(=O)N2CCCCC2)CC(=O)N(C)CCC(=O)N(C)[C@@H](CC(C)C)C(=O)N[C@@H](CC(C)C)C(=O)N(C)[C@@H](Cc2ccccc2)C(=O)N[C@@H](COC(C)(C)C)C(=O)N(C)C(Cc2ccccc2)C(=O)N1C (stereo partly drawn) [DP-103] ([NMeβAla][NMeL]L[NMeF]S(tBu)[ξNMeF][NMeI]T[NMeA][NMeL]D-Piperidide; lactam N-11) | 73

* * *

assay text: PAMPA (parallel artificial membrane permeability assay)
Assay type: in vitro ADME
test settings: PAMPA; membrane permeation rate (Pe); 50 mM MOPSO buffer pH 6.5 with 5.0% glycocholic acid, 37° C., 18 hours; read-out: iPAMPA Pe
Positions of bridges follow the written chain, without caps; N, C: chain ends. Non-standard residues stand in square brackets, D forms with d. Residues, ends and D or L forms follow the SMILES beside them. *: point of attachment. NMeF = CN[C@@H](Cc1ccccc1)C(=O)O; NMeI = CC[C@H](C)[C@H](NC)C(=O)O; NMeL = CN[C@@H](CC(C)C)C(=O)O; NMeV = CN[C@H](C(=O)O)C(C)C; NMeA = CN[C@@H](C)C(=O)O; Piperidide = C1CCN(*)CC1; dNMeA = CN[C@H](C)C(=O)O; β3hA = C[C@H](N)CC(=O)O; Sar = CNCC(=O)O
parameter measured: Papp at 18 hours, 50 µM (×10⁻⁶ cm/s)

• CC[C@H](C)[C@H]1C(=O)NCC(=O)N(C)[C@@H](Cc2ccccc2)C(=O)N[C@@H]([C@@H](C)O)C(=O)N(C)[C@@H](C)C(=O)N[C@@H](CC(C)C)C(=O)N[C@@H](C)CC(=O)N(C)[C@H](C)C(=O)N(C)[C@@H](C)C(=O)N[C@@H](Cc2ccccc2)C(=O)N(C)[C@@H](CC(C)C)C(=O)N[C@@H](C(C)C)C(=O)N1C [DP-755] (cyclo(F[NMeL]V[NMeI]G[NMeF]T[NMeA]L[β3hA][dNMeA][NMeA])) = 36
• CC[C@H](C)[C@@H]1NC(=O)[C@H](CC(C)C)NC(=O)[C@H](C(C)C)NC(=O)[C@H](CC(C)C)N(C)C(=O)[C@H](CC(C)C)NC(=O)[C@H](Cc2ccccc2)NC(=O)[C@H]([C@@H](C)O)NC(=O)[C@H](C)N(C)C(=O)[C@H](CC(C)C)NC(=O)[C@H](C)N(C)C(=O)C[C@@H](C(=O)N2CCCCC2)NC1=O [DP-478] ([NMeA]L[NMeA]TFL[NMeL]VLID-Piperidide; lactam N-11) = 18
• CC(C)C[C@@H]1NC(=O)[C@H](C(C)C)N(C)C(=O)[C@H](C)N(C)C(=O)[C@H](Cc2ccccc2)N(C)C(=O)[C@H](Cc2ccccc2)NC(=O)[C@@H](C)N(C)C(=O)C[C@@H](C(=O)N2CCCCC2)NC(=O)[C@H]([C@@H](C)O)NC(=O)[C@H](C)N(C)C(=O)[C@H](C)N(C)C(=O)[C@H](C)NC(=O)CN(C)C1=O [DP-467] ([dNMeA]F[NMeF][NMeA][NMeV]L[Sar]A[NMeA][NMeA]TD-Piperidide; lactam N-12) = 1.5

* * *

assay text: Metabolic stability in human hepatic microsome
Type: in vitro ADME
test settings: microsomes, pH 7.4; human hepatic microsome, NADPH(+); read-out: CL NADPH(+)
Positions of bridges follow the written chain, without caps; N, C: chain ends. Non-standard residues stand in square brackets, D forms with d. Residues, ends and D or L forms follow the SMILES beside them. *: point of attachment. NMeF = CN[C@@H](Cc1ccccc1)C(=O)O; NMeI = CC[C@H](C)[C@H](NC)C(=O)O; NMeL = CN[C@@H](CC(C)C)C(=O)O; NMeA = CN[C@@H](C)C(=O)O; Piperidide = C1CCN(*)CC1
parameter measured: microsomal CLint at 1 uM (µL/min/mg)

- CC[C@H](C)[C@H]1C(=O)N(C)[C@@H](CC(C)C)C(=O)N[C@@H]([C@@H](C)O)C(=O)N[C@H](C(=O)N2CCCCC2)CC(=O)N[C@H](C(C)C)C(=O)N(C)[C@@H](C)C(=O)N(C)[C@@H](CC(C)C)C(=O)N(C)[C@@H](Cc2ccccc2)C(=O)N[C@@H](C)C(=O)N(C)[C@@H](CC(C)C)C(=O)N(C)[C@@H](Cc2ccccc2)C(=O)N1C [DP-234] ([dV][NMeA][NMeL][NMeF]A[NMeL][NMeF][NMeI][NMeL]TD-Piperidide; lactam N-11): 91

* * *

assay text: PAMPA (parallel artificial membrane permeability assay)
Format: in vitro ADME
test settings: PAMPA; membrane permeation rate (Pe); 50 mM MOPSO buffer pH 6.5 with 5.0% glycocholic acid, 37° C., 18 hours; read-out: iPAMPA Pe
Starred links: 1 amine or outer side, 2 acyl side, 3 side chain; linkers in the order of their positions; H or OH if unused. Positions of bridges follow the written chain, without caps; N, C: chain ends. Non-standard residues stand in square brackets, D forms with d. Residues, ends and D or L forms follow the SMILES beside them. *: point of attachment. NMeF = CN[C@@H](Cc1ccccc1)C(=O)O; NMeGABA = CN(CCCC(=O)[*:2])[*:1]; NMeL = CN[C@@H](CC(C)C)C(=O)O; NMeV = CN[C@H](C(=O)O)C(C)C; NMeA = CN[C@@H](C)C(=O)O; Piperidide = C1CCN(*)CC1; Sar = CNCC(=O)O; tBu = CC(C)(C)*
parameter measured: Papp at 18 hours, 50 µM (×10⁻⁶ cm/s)

• CC[C@H](C)[C@@H]1NC(=O)[C@H](Cc2ccccc2)N(C)C(=O)[C@H](C)N(C)C(=O)[C@H]([C@@H](C)O)NC(=O)[C@H](CC(C)C)N(C)C(=O)[C@H](C)N(C)C(=O)C[C@@H](C(=O)N(C)[C@@H](Cc2ccccc2)C(=O)N[C@@H](C)C(=O)N2CCCCC2)NC(=O)[C@H](C(C)C)N(C)C(=O)[C@H](CC(C)C)N(C)C(=O)CN(C)C1=O [DP-492] ([NMeA][NMeL]T[NMeA][NMeF]I[Sar][NMeL][NMeV]D[NMeF]A-Piperidide; lactam N-10) = 20
• CC(C)C[C@@H]1NC(=O)CCCN(C)C(=O)C[C@@H](C(=O)N2CCCCC2)NC(=O)[C@H](Cc2ccccc2)N(C)C(=O)[C@H]([C@@H](C)O)NC(=O)[C@H](CC(C)C)N(C)C(=O)[C@H](COC(C)(C)C)NC1=O [DP-716] ([NMeGABA]LS(tBu)[NMeL]T[NMeF]D-Piperidide; lactam N-7) = 21
• CC(C)C[C@@H]1NC(=O)[C@H](C)NC(=O)C[C@@H](C(=O)N2CCCCC2)NC(=O)[C@H](Cc2ccccc2)N(C)C(=O)[C@H](CC(C)C)N(C)C(=O)[C@H](C)NC(=O)[C@H](Cc2ccccc2)N(C)C(=O)[C@H](CC(C)C)N(C)C1=O [DP-673] (AL[NMeL][NMeF]A[NMeL][NMeF]D-Piperidide; lactam N-8) = 30
